Each entry below lists one item and its recorded EC50 value.
# Test System: T1, CD25 protein (Sino Biological, 10165-H08H) (UniProt P01589 22-213)
# T1 construct: Bought recombinant protein; It speaks elsewhere of human CD25; also called antigen CD25; IL-2Rα
# T1 sequence (looked up): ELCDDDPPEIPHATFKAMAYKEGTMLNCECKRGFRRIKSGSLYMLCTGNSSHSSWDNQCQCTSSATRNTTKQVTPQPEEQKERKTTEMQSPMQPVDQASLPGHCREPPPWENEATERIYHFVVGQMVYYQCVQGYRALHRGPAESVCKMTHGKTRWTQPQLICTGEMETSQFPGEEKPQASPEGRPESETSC
# Procedure Details: ELISA; CD25 protein coated in a dilution series, antibody at one fixed concentration, anti-human IgG/HRP
Note: state the figure and append the unit.

Would you please look over these solved cases?
Lab book: EC50 of CD25Q14-CA705-IgG1 (antibody, V domains shown, IgG1 expressed in HEK293) VH: EVQLVQSGAEVKKPGESLKISCKGSGYSFANYWIVWVRQMPGKGLEWMGIIYPDDSETRYSPSFQGQVTFSADKSISTAYLQWSSLKASDTAMYYCTRGPYYSDYWGQGTLVTVSS VL: DIQMTQSPSTLSASVGDRVSITCRASQSIGSWLAWYQQKPGKAPKLLIFEASNLESGVPSRFSGSGSGTEFTLTISNLQPDDFATYYCQQYNSYSLTFGGGTKVEIKR noted as 4.77 ng/mL

Please fill in: EC50 reported for CD25-MA251-IgG1 (antibody, V domains shown, also called CD25Q-MA251; control antibody) VH: QVQLKESGPGLVAPSQSLSITCTVSGFSLTSYGIQWVRQPPGKGLEWLGVIWAGGSTNYNSALMSRLSISKDNSKSQVFLKMNSLQTDDTAMYYCARAYGYDGSWLAYWGQGTLVTVSS VL: QIVLSQSPAILSASPGEKVTMTCRASSSVSYMHWYQQKPGSSPKPWIFATSNLASGVPARFSGSGSGTSYSLTINRVEAEDADTYYCQQWSSNPPTFGGGTKLEIKR = 14.1 ng/mL

***
// EC50 lookup, binder = CD25Q11-BA406-IgG1 (antibody, V domains shown, IgG1 expressed in HEK293) VH: EVQLVQSGAEVKKPGESLKISCKGSGYSFTNYWIAWVRQMPGKGLEWMGIIYPGDSVTRYSPSFQGQVTISADKSINTAYLQWSSLRASDTAMYYCARGPYYFEYWGQGTLVTVSS VL: DIVMTQSPSTLSASVGDRVTITCRASQSISSFLAWYQQKPGRAPELLIYKASTLESRVPSRFSGSGSGTEFTLTISSLQPEDFATYYCQQYKSFSWTVGQGTKVEIKR , result: 0.651 ng/mL

// CD25Q11-BA415-IgG1 (antibody, V domains shown, IgG1 expressed in HEK293) VH: QVQLVQSGTEVKKPGESLKISCEGVGYSFTTYWIGWVRQMPGKGLEWMGIIYPGDSITRYSPSFQGQVTISADKSINTAYLQWSSLMASDTAMYYCVRGPHWGDYWGQGTLVTVSS VL: DIQMTQSPSTLSASVGDRVTITCRASQSISTWLAWYQQKPGKAPKLLIYKASSLESGVPSRFSGSGSGTEFTLTISSLQPDDFAAYYCQQYSSYSWTFGQGTKVEIKR : EC50 value = 0.941 ng/mL
